Values compiled from patent US20260158009A1.

Target: hRIPK1 (aa 1-375) fusion protein (Homo sapiens)
Construct: hRIPK1 (aa 1-375) fusion protein
Sequence (Q13546 1-375): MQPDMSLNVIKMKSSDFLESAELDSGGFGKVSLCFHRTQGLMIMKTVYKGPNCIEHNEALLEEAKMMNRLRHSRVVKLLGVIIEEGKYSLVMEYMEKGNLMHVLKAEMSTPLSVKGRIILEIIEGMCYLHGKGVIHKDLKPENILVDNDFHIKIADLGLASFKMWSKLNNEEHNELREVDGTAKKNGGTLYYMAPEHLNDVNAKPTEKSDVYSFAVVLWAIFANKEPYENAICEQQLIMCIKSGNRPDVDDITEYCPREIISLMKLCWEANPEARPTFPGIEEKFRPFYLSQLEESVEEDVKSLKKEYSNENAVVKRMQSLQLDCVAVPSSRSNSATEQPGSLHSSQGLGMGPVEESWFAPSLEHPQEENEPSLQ
Assay: ADP-Glo kinase assay: catalytic activity of RIPK1 (autophosphorylation, conversion of ATP to ADP)
Please note: IC50 exactly at 20 nM is -1. Only values below 20 nM get 1.

Field: below-cutoff. Rule: recorded IC50 strictly less than 20 nM. Subject: CNC(=O)c1ccc(F)c(C[C@H]2CC[C@H](C(=O)N3OCC[C@H]3c3cncc(C#N)c3)CC2)c1
1

Field: below-cutoff. Rule: recorded IC50 strictly less than 20 nM. Subject: CNC(=O)c1ccc(F)c(C[C@H]2CC[C@H](C(=O)N3OCC[C@H]3c3ccc(F)cc3)CC2)c1
1

Field: below-cutoff. Rule: recorded IC50 strictly less than 20 nM. Subject: Cc1ccc(CC23CCC(C(=O)N4OCC[C@H]4c4cc(F)cc(C#N)c4)(CC2)CC3)cc1C(N)=O
1

Field: below-cutoff. Rule: recorded IC50 strictly less than 20 nM. Subject: Cc1nnc2c(F)cc(C[C@H]3CC[C@H](C(=O)N4OCC[C@H]4c4ccc(F)cc4)CC3)cn12
-1

Field: below-cutoff. Rule: recorded IC50 strictly less than 20 nM. Subject: CNC(=O)c1cc(F)cc(C[C@H]2CC[C@H](C(=O)N3OCC[C@H]3c3cncc(C#N)c3)CC2)c1
1

Field: below-cutoff. Rule: recorded IC50 strictly less than 20 nM. Subject: Cc1cn(C[C@H]2CC[C@H](C(=O)N3OCC[C@H]3c3cc(F)cc(C#N)c3)CC2)c2cc(C(N)=O)ccc12
-1

Field: below-cutoff. Rule: recorded IC50 strictly less than 20 nM. Subject: Cc1cnc([C@@H]2CCON2C(=O)[C@H]2CC[C@H](Cc3cnc4c(C)nn(C)c4c3)CC2)cn1
-1

Field: below-cutoff. Rule: recorded IC50 strictly less than 20 nM. Subject: Cc1ccc([C@@H]2CCON2C(=O)[C@H]2CC[C@H](Cn3nc(C)cc3C)CC2)cc1
-1

Field: below-cutoff. Rule: recorded IC50 strictly less than 20 nM. Subject: Cc1cc(-c2cncc(C[C@H]3CC[C@H](C(=O)N4OCC[C@H]4c4cnccn4)CC3)c2)n(C)n1
-1

Field: below-cutoff. Rule: recorded IC50 strictly less than 20 nM. Subject: COCCOc1cnc2ccn(C[C@H]3CC[C@H](C(=O)N4OCC[C@H]4c4cc(F)cc(C#N)c4)CC3)c2c1
1

Field: below-cutoff. Rule: recorded IC50 strictly less than 20 nM. Subject: N#Cc1cc(F)cc([C@@H]2CCON2C(=O)[C@H]2CC[C@H](Cc3cc(F)c4ncnn4c3)CC2)c1
1

Field: below-cutoff. Rule: recorded IC50 strictly less than 20 nM. Subject: Cc1cc(C[C@H]2CC[C@H](C(=O)N3OCC[C@H]3c3cnccn3)CC2)cn2c(C)nnc12
-1

Field: below-cutoff. Rule: recorded IC50 strictly less than 20 nM. Subject: Cc1cn2nc(C[C@H]3CC[C@H](C(=O)N4OCC[C@H]4c4cc(F)cc(F)c4)CC3)cc(C)c2n1
1

Field: below-cutoff. Rule: recorded IC50 strictly less than 20 nM. Subject: Cn1nccc1C[C@H]1CC[C@H](C(=O)N2OCC[C@H]2c2cnccn2)CC1
-1

Field: below-cutoff. Rule: recorded IC50 strictly less than 20 nM. Subject: Cc1cc(C[C@H]2CC[C@H](C(=O)N3OCC[C@H]3c3csc(C)n3)CC2)c(C)cn1
-1

Field: below-cutoff. Rule: recorded IC50 strictly less than 20 nM. Subject: N#Cc1cc2c(ccn2C[C@H]2CC[C@H](C(=O)N3OCC[C@H]3c3cc(F)cc(F)c3)CC2)cc1F
-1

Field: below-cutoff. Rule: recorded IC50 strictly less than 20 nM. Subject: Cc1cc(C[C@H]2CC[C@H](C(=O)N3OCC[C@H]3c3cc(F)cc(C#N)c3)CC2)nc(C)n1
-1

Field: below-cutoff. Rule: recorded IC50 strictly less than 20 nM. Subject: Cc1ccc(C[C@H]2CC[C@H](C(=O)N3OCC[C@H]3c3cnccn3)CC2)cc1C(N)=O
1

Field: below-cutoff. Rule: recorded IC50 strictly less than 20 nM. Subject: Cc1cncc([C@@H]2CCON2C(=O)[C@H]2CC[C@H](Cc3ccc(F)c(C(N)=O)c3)CC2)n1
1

Field: below-cutoff. Rule: recorded IC50 strictly less than 20 nM. Subject: Cc1nc2c(F)cc(C[C@H]3CC[C@H](C(=O)N4OCC[C@H]4c4cncc(F)c4)CC3)cn2n1
-1

Field: below-cutoff. Rule: recorded IC50 strictly less than 20 nM. Subject: Cc1cc([C@@H]2CCON2C(=O)[C@H]2CC[C@H](Cn3ncc4c(F)cc(C#N)cc43)CC2)co1
1

Field: below-cutoff. Rule: recorded IC50 strictly less than 20 nM. Subject: N#Cc1cc(F)cc([C@@H]2CCON2C(=O)[C@H]2CC[C@H](Cn3cnc4cc(C#N)ccc43)CC2)c1
-1

Field: below-cutoff. Rule: recorded IC50 strictly less than 20 nM. Subject: N#Cc1cc2c(cc1F)ncn2C[C@H]1CC[C@H](C(=O)N2OCC[C@H]2c2cc(F)cc(F)c2)CC1
-1

Field: below-cutoff. Rule: recorded IC50 strictly less than 20 nM. Subject: O=C([C@H]1CC[C@H](Cn2ncc3cc(F)ccc32)CC1)N1OCC[C@H]1c1cc(F)cc(F)c1
-1

Field: below-cutoff. Rule: recorded IC50 strictly less than 20 nM. Subject: COc1cncc([C@@H]2CCON2C(=O)[C@H]2CC[C@H](Cn3ncc4ccc(C(N)=O)cc43)CC2)n1
-1

Field: below-cutoff. Rule: recorded IC50 strictly less than 20 nM. Subject: O=C1NCc2c(F)cc(C[C@H]3CC[C@H](C(=O)N4OCC[C@H]4c4ccc(F)cc4)CC3)cc21
-1

Field: below-cutoff. Rule: recorded IC50 strictly less than 20 nM. Subject: Cc1ccc([C@@H]2CCON2C(=O)[C@H]2C[C@H](Cn3cnc4cc(F)ccc43)C2)cc1
-1
